Value source: paper PMC3356383

System: BaF3 (JAK2 WT) cells
Experiment: Cell apoptosis, ApoDirect assay
Type: cell-based
Details: Mus musculus, 24 hour, EPO-stimulated, ApoDirect measurement of fragmented DNA, read-out: Cell apoptosis, BaF3 (JAK2 WT) (values shown are EC50)
Method: Cell survival was measured by ApoDirect (BD Biosciences) assay as follows. BaF3 cells were grown at 37°C, 5% CO2, and aliquots (2 × 10^6) were treated with inhibitor (various concentration dissolved in DMSO) for 24 hours and then fixed and stained as per manufacturer protocol.
parameter_measured: EC50 (nM)
Give just the numeric value; nM need not be written.

Which measured EC50 value corresponds to `NC(=O)c1cnc(N[C@H](C2CC2)C(F)(F)F)c2c1[nH]c1cc(-c3cnc(N)nc3)ccc12` ? 260
